target: Cav2.3 (Homo sapiens, UniProt Q15878); assay: Human Cav2.3 channel calcium-influx assay; type: cell-based; settings: Fluo8 fluorescence, HEK-293 T-Rex/Kir2.1/Cav2.3e cells, without pluronic acid, read-out: Cav2.3 (pIC50) (converted)
Sequence (Q15878 whole entry, looked up): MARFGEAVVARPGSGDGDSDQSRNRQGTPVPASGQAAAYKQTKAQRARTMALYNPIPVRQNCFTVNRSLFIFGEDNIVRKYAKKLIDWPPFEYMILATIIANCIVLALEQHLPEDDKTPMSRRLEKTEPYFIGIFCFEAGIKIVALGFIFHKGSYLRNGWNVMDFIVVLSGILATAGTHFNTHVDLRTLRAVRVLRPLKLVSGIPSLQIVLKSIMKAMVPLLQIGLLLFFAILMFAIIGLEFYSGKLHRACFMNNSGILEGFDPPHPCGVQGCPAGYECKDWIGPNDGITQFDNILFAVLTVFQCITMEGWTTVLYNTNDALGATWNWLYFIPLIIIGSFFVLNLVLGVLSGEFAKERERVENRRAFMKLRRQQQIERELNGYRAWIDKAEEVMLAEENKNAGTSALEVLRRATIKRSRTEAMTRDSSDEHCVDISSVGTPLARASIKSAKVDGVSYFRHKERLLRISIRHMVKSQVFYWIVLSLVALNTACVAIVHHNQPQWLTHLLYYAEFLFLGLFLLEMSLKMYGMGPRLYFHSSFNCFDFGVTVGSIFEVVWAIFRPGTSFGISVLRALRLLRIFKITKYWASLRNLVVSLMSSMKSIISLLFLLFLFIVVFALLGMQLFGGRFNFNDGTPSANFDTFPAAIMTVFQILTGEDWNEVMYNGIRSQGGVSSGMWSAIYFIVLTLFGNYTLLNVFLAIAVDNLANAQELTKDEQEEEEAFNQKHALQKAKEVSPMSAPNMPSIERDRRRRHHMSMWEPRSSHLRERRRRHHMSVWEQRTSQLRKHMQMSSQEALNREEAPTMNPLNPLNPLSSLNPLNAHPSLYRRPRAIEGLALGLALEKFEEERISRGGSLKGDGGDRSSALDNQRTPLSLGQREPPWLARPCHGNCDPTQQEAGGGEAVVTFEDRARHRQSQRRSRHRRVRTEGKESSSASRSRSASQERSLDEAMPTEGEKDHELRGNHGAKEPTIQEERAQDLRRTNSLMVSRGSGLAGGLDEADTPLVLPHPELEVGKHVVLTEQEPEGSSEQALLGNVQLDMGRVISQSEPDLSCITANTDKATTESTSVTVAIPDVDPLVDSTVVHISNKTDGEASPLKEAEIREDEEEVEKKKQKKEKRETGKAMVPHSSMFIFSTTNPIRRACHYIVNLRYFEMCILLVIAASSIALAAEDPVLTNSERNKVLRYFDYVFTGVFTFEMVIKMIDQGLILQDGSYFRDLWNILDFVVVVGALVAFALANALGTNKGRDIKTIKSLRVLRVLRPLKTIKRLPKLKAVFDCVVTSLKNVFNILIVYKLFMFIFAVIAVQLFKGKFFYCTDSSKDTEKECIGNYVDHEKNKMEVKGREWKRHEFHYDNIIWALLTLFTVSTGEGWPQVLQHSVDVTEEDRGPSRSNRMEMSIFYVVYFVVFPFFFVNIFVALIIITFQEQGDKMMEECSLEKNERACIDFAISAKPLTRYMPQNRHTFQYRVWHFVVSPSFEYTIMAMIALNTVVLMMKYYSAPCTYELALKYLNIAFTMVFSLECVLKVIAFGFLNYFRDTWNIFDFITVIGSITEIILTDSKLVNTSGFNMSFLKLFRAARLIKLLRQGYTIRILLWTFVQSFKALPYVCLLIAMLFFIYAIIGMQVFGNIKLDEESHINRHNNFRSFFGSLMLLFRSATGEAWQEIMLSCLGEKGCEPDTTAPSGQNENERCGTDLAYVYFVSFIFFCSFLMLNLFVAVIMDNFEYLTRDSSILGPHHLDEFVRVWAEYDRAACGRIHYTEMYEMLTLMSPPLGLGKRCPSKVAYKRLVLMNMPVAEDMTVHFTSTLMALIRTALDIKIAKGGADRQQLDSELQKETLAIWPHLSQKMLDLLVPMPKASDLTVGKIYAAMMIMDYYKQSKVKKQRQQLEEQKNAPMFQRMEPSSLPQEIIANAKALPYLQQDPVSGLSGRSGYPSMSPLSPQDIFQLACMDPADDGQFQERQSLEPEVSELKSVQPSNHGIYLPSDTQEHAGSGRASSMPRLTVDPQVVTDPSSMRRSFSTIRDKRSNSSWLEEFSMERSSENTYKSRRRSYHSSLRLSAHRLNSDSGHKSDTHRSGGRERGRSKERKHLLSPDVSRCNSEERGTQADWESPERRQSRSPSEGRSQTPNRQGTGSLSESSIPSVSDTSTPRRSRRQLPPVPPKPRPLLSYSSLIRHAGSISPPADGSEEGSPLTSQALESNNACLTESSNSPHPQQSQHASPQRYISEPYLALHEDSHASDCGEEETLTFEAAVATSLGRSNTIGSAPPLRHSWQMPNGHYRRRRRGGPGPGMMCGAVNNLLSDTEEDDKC
Kindly supply the reported IC50 values for the records listed here.
One number for each entry, in nM.

Give IC50 for all molecules that follow.
1. CCN([C@H](c1ccc(C(F)(F)F)c(C)c1)C(F)(F)F)S(=O)(=O)c1cncc(C#N)c1
2. N#Cc1cncc(S(=O)(=O)N(CCF)[C@@H](c2ccc(F)cc2)C(F)(F)F)c1
3. CN([C@H](c1ccc(Cl)cc1)C(F)(F)F)S(=O)(=O)c1cncc(C#N)c1
4. CN([C@H](c1ccc(Cl)cc1)C(F)(F)F)S(=O)(=O)c1cn2ccnc2cn1
5. CN([C@H](c1ccc(Cl)cc1)C(F)(F)F)S(=O)(=O)c1cncc(F)c1
6. CN([C@H](c1ccc(F)cc1)C(F)(F)F)S(=O)(=O)c1cnc2ccnn2c1
7. CCN([C@H](c1ccc(F)cc1)C(F)(F)F)S(=O)(=O)c1ccnc2[nH]ccc12

1: 468; 2: 3800; 3: 25.7; 4: 1150; 5: 30.2; 6: 240; 7: 302

# return recorded IC50 for input CN([C@H](c1ccc(Cl)cc1)C(F)(F)F)S(=O)(=O)c1cnc2ccnn2c1 427
